target: Bifunctional protein GlmU (Mycobacterium tuberculosis (strain ATCC 25618 / H37Rv)) (UniProt P9WMN3); experiment: inhibition of mycobacterial GlmU enzyme – biochemical, glucosamine-1-phosphate acetyltransferase (AID 1376); details: M. tuberculosis GlmU acetyltransferase enzyme assay;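 tested at 30 µM in the primary screen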
Sequence (P9WMN3 whole entry, looked up): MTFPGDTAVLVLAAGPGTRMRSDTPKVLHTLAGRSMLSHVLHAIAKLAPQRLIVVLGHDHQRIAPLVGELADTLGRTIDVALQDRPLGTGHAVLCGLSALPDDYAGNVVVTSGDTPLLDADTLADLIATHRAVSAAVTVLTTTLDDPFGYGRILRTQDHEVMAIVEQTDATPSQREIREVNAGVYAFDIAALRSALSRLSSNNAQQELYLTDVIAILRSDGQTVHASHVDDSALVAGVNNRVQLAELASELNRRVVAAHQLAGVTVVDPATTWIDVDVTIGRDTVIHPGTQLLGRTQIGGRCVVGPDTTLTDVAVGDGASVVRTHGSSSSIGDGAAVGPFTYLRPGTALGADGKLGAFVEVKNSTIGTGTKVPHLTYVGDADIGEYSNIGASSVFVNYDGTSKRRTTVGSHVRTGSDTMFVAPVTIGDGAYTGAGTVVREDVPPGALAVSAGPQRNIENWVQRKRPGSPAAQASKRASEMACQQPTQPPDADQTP
In all, about 220,000 compounds went through this assay and about 530 (0.24%) were called active. Rule as the data show it: active = inhibition above about 13%; inconclusive = no clear call, values can overlap the other calls; inactive = below that. The full list was thinned out, with actives kept by preference. Potency and affinity values are given separately.
Can you answer with just one of these options? active, inactive

Write down the call the test reported for this molecule. Item: `CC(=O)c1ccc(S(=O)(=O)N2CCNCC2)cc1`
inactive

Write down the call the test reported for this molecule. Item: `CCOC(=O)/C(C#N)=C/Nc1cc(C(=O)OCC)cc2c(OC)c(OC)ccc12`
active

Write down the call the test reported for this molecule. Item: `CN(C)c1ncc(S(=O)(=O)c2ccccc2)c(-c2ccccc2Cl)n1`
active

Write down the call the test reported for this molecule. Item: `CN(C)c1ncc(S(=O)(=O)c2ccc(Cl)cc2)c(-c2ccccc2)n1`
inactive

Write down the call the test reported for this molecule. Item: `NS(=O)(=O)c1ccc(CNC(=O)NC2(c3ccccc3)CC2)cc1`
inactive

Write down the call the test reported for this molecule. Item: `CCOC(=O)/C(C#N)=C/Nc1cc(OC)ccc1OC`
inactive
